Let's look at some binders and their measured MFI.
Target: ESO157 A3 peptide (…)/HLA-A*02:01 complex on T2 cells (human)
Experiment: FACS, peptide-pulsed T2 cells
No unit in the answer, only the number.

Consider the reported MFI for these binders:
phage clone #116, anti-ESO157/HLA-A*02:01 scFv displayed on phage (scFv, V domains shown) VH: QVQLVQSGPEVKKPGASMKVSCKASGYTFTKYGISWVRQAPGQGLEWMGWISADSGKTSYAQNLQGRVSLTIDTSTATAYMELRSLRSDDTAVYYCARDDDSWGQGTLVTVSS VL: QSVLTQPPSVSAAPGQKVTISCSGSSSNIGNNYVSWYQQLPGTAPKLLIYDNNKRPSGIPDRFSGSKSGTSATLGITGLQTGDEADYYCGTWDSSLSAEVFGTGTKVTVLG	16500
phage clone #35, anti-ESO157/HLA-A*02:01 scFv displayed on phage (scFv, V domains shown, also called parental phage clone #35) VH: QVQLVQSGAEVKKPGSSVKVSCKASGDTFSSYSISWVRQAPGQGLEWMGRIIPILGIANYAQKYQGRVTLSADKSTSTSYMELNSLRSEDTAVYYCARDWSYSIDYWGQGTLVTVSS VL: QSVVTQPPSVSAAPGQKVTISCSGSSSNIGNNYVSWYQQLPGTAPKLLIYDNNKRPSGIPDRFSGSKSGTSATLGITGLQTGDEADYYCGTWDSSLSAWVFGGGTKLTVLG	10200

The record that follows has no MFI shown yet.
**Q:** Provide measured MFI value, entry: phage clone #76, anti-ESO157/HLA-A*02:01 scFv displayed on phage (scFv, V domains shown) VH: EVQLVQSGAEVKKPGSSVKVSCKASGGTFSSYAISWVRQAPGQGLEWMGGIIPIFGTANYAQKFQGRVTITADESTSTAYMELSSLRSEDTAVYYCARYDSYVYDEWGQGTLVTVSS VL: QSVVTQPPSLSGAPGQRVTISCNGSGSNIGAGYDVHWYQQLPGTAPKLLIYGNSNRPSGVPDRFSGSKSGTSASLAITGLQAEDEADYYCQSYDSSLSGWGIFGGGTKLTVLG
**A:** 42900
